test target: pooled human IgG (human IgG1, 2, 3 and 4)
test readout: Enzyme Activity Endpoint Assay: scIgG

PRT-483 (protein) MVTSVWTKGVTPPTDFIKGEDVFHAPYKAGQGWYDITKTFNGKDNLLCGAATAGNMLHWWFDQNKDQIEAYLKEHPEKQKIIFNNQELFDLKAAIDTKDDQTNSKLFEYFKEKAFPYLSTKHLGVFPDHVLDMFINGYRLSLTNHGPTPVKEGSKDKRGGIFDAVFTRGVQSKLLTSRHDLKNKTLKEISDLIKQELTEGKALALSHTYANVRINHVINLWGADFDSNGNLEAIYVTDSDTNASIGMKKYFVGVNSAGKVAISAKEIEDDNIGAQVLGLFTLSTGQDIWNQTNLEHHHHHH: 0 ng/µL

Data request, read-out Enzyme Activity Endpoint Assay: scIgG, for PRT-571 (protein) MANQEIRYSEETPSTITSVWTKGVTPPTQFIQNEDVLHAPYIANQGWYDITKTFNGKDDLLCGAATAGNMLHWWFDQNKEQIENYLKKHPEKQKINFNGEQMFDVKEAIDTKDSQTDSALFEYFKDKAFPYLSTKHLGVFPDHVIDMFINGYRLSLTNHGPTPVKRGTKDPRGGIFDAVFTRGDQSKLLTSRHDFKEKTLNEISDLIKQELTEGKALGLSHTYANVRINHVINLWGADFNAEGNLEAIYVTDSDSNASIGMKKYYVGVNAAGKVAISAKEIEGDNIGAQVLGLFTLSTGQDIWNQTNLEHHHHHH
295 ng/µL
